Measured values drawn from ChEMBL document CHEMBL1240494 for this set.

TEST: Partition coefficient, log D of the compound
Assay type: physicochemical
ASSAY CONDITIONS: octanol/water
MEASURE NAME: logD

- LINE NOTATION: "COc1cc2c(cc1OC)CN(Cc1ccc3cc(O[11CH3])ccc3c1)CC2"
  EXPERIMENTAL RESULT: 1.96
